Where do the numbers come from? From patent CN115246884A.

target_or_system: 生物素化的PD-L1抗原 (UniProt Q9NZQ7)
protocol_text: competition ELISA, biotinylated PD-L1 on streptavidin, competitor PD-1 mFc 2.0 μg/mL; ratio = IC50 of chimeric antibody / IC50 of humanised antibody x 100%
assay_endpoint: 相对竞争抑制活性，% (%)

binder="人源化抗PD-L1单域抗体C1-hu16 (Fc fusion, not shown: a dimerising Fc or GST) heavy: EVQLVESGGGLVQPGGSLRLSCAASGAAPCMAWFRQAPGKEREGVAASVRGGLSPYYADVKGRFTISHDIPKNTMYLQMNSLRAEDTAVYYCAARATFYRCEGDASSYTYWGQGTLVTVSS" endpoint_unit=% readout_number=107
binder="人源化抗PD-L1单域抗体C1-hu11 (Fc fusion, not shown: a dimerising Fc or GST) heavy: EVQLVESGGGLVQPGGSLRLSCAASGAAPCMAWFRQAPGKGREGVAASVRGGLSPYYADVKGRFTISHDIPKNTMYLQMNSLRAEDTAVYYCAARATFYRCEGDASSYTYWGQGTLVTVSS" endpoint_unit=% readout_number=89.1
